Ref: patent US11999727B2

target: PRMT5 (Homo sapiens); construct: purchased Viva (custom protein); assay: PRMT5 biochemical IC50 assay with no cofactor; conditions: PRMT5, no cofactor; read-out: No Cofactor/ rel IC50
Assign IC50 to each entry below.

Problem: Fill in IC50 for record Cc1cc(C)cc([C@@H]2CC[C@@H](C)CN2C(=O)C(=O)Nc2cncc(C(N)=O)c2)c1 (racemic)
Solution: > 500 nM

Problem: Supply reported IC50 belonging to this molecule: NC(=O)c1cncc(NC(=O)C(=O)N2C[C@@H]3CC[C@@H](C3)[C@@H]2c2cccs2)c1 (racemic)
Solution: > 500 nM

Problem: State its IC50: `CCc1cc(NC(=O)C(=O)N2[C@@H](c3ccc4sc(C5CCN(C)CC5)nc4c3)CCC[C@@H]2C)cnc1N`
Solution: < 50 nM

Problem: Identify the reported IC50 for the following entry. Cn1nccc1C1CCCCN1C(=O)C(=O)Nc1cncc(C(N)=O)c1 (single isomer, unassigned) [Compound 59]
Solution: > 500 nM

----------
molecular target: PRMT5 (Homo sapiens, UniProt O14744); construct: purchased Viva (custom protein); test: PRMT5 biochemical IC50 assay with MTA as cofactor; conditions: PRMT5, MTA as cofactor; read-out: MTA IC50
Sequence (O14744 whole entry): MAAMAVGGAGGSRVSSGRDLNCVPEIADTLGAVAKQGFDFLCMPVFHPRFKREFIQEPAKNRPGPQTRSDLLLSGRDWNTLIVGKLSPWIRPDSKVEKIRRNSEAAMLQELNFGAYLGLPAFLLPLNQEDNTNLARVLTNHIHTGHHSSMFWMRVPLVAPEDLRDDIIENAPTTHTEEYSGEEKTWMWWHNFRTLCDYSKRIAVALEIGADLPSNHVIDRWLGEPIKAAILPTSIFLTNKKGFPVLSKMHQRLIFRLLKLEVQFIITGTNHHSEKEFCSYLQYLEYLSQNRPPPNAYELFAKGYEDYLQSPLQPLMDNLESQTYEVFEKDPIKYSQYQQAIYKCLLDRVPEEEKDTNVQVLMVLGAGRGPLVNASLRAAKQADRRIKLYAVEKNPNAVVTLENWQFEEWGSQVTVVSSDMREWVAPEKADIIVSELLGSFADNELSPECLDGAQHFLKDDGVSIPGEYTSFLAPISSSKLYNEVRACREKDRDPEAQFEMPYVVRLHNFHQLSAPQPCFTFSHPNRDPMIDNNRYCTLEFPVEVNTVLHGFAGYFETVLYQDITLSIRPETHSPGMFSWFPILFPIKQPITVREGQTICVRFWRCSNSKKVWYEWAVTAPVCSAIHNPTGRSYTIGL
Sequence (Q9BQA1 whole entry partner): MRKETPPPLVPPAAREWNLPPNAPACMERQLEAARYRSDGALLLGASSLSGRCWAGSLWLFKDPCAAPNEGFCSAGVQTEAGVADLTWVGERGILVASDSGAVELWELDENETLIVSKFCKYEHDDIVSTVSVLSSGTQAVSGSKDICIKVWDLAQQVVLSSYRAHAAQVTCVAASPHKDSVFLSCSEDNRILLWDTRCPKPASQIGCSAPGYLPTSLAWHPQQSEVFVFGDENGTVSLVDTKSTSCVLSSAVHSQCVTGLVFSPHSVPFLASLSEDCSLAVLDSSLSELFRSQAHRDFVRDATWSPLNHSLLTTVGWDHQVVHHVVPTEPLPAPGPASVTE
Exercise: state measured IC50 for each of the compounds provided.

Problem: Report measured IC50; entry is Cc1cncc(NC(=O)C(=O)N2C[C@H](C)CC[C@H]2c2ccc(F)cc2)c1 (racemic)
Solution: 50 to 500 nM

Problem: Supply recorded IC50 for Cc1cc(NC(=O)C(=O)N2C[C@H](C)CC[C@H]2c2cc(Cl)cc(Cl)c2)cnc1N (single isomer, unassigned) here.
Solution: < 50 nM

Problem: Indicate its recorded IC50; the compound in question is Cc1cc(NC(=O)C(=O)N2C[C@H](C)CC[C@H]2C2CCCC(C)(C)C2)cnc1N (mixture of isomers)
Solution: 50 to 500 nM

Problem: Indicate its recorded IC50; the compound in question is Cc1cc(NC(=O)C(=O)N2C[C@H](C)CC[C@H]2c2ccc(C(F)(F)F)cc2)cnc1N (single isomer, unassigned)
Solution: < 50 nM

Problem: Please list IC50 recorded for the compound Cc1cncc(NC(=O)C(=O)N2C[C@H](C)CC[C@H]2c2cccc(Cl)c2)c1 (single isomer, unassigned) [Compound 90]
Solution: > 500 nM

Problem: Quickly give me recorded IC50 for C[C@@H]1CN(C(=O)C(=O)Nc2cncc(C(N)=O)c2)C[C@@H]2CCCC[C@@H]21 (racemic)
Solution: 50 to 500 nM

Problem: Return IC50 (reported value) for this compound: Cc1cc(NC(=O)C(=O)N2C[C@@H](C)CC[C@@H]2c2ccc3[nH]ncc3n2)cnc1N (single isomer, unassigned)
Solution: > 500 nM

Problem: Identify IC50 associated with the compound C[C@@H]1CC[C@@H](c2ccccc2)N(C(=O)C(=O)Nc2cncc(C(N)=O)c2)[C@@H]1C (racemic) [Compound 154]
Solution: < 50 nM

Problem: Give recorded IC50. `CCc1cc(NC(=O)C(=O)N2C[C@@H](C)CC[C@@H]2c2ccc3sc(CO)nc3c2)cnc1N`
Solution: < 50 nM

Problem: Give recorded IC50. Cc1cncc(NC(=O)C(=O)N2C[C@H](C)CC[C@H]2c2ccnc(C)c2)c1 (racemic)
Solution: 50 to 500 nM

Problem: // fetch IC50 given entry CCc1cc(NC(=O)C(=O)N2C[C@@H](C)CC[C@@H]2c2ccc(N3CCN(CC)CC3)cc2)cnc1N (single isomer, unassigned)
Solution: > 500 nM

----------
molecular target: PRMT5 (Homo sapiens, UniProt O14744); construct: purchased Viva (custom protein); test: PRMT5 biochemical IC50 assay with SAM as cofactor; conditions: PRMT5, SAM as cofactor; read-out: SAM IC50
pIC50: −log10 of the molar value.
Assignment: determine reported pIC50 for the given molecules.

Problem: Provide measured pIC50 value, entry: NC(=O)c1cncc(NC(=O)C(=O)N2CCCC[C@H]2c2ccccc2)c1 (single isomer, unassigned)
Solution: < 6.30

Problem: For the molecule COc1ncc(NC(=O)C(=O)N2C[C@H](C)CC[C@H]2c2cnc3[nH]ncc3c2)cc1C(N)=O (single isomer, unassigned) , report pIC50.
Solution: 6.30 to 7.30

Problem: Note pIC50 for the molecule shown: Cc1cc(NC(=O)C(=O)N2C[C@H](C)CC[C@H]2c2ccc(F)c3[nH]ncc23)cnc1N (racemic)
Solution: 6.30 to 7.30

Problem: Consider the molecule C[C@H]1CC[C@@H](c2ccc(O)nc2)N(C(=O)C(=O)Nc2cncc(C(N)=O)c2)C1 (single isomer, unassigned) . State its measured pIC50.
Solution: < 6.30

Problem: Quick one: give measured pIC50 for CCc1cc(NC(=O)C(=O)N2C[C@@H](C)CC[C@@H]2c2cccc3[nH]ncc23)cnc1N (single isomer, unassigned)
Solution: 6.30 to 7.30

Problem: For the molecule `CCc1cc(NC(=O)C(=O)N2C[C@@H](C)CC[C@@H]2c2cccc(CCCN(C)C)c2)cnc1N` , report pIC50.
Solution: 6.30 to 7.30

----------
molecular target: PRMT5 (Homo sapiens, UniProt O14744); construct: purchased Viva (custom protein); experiment: PRMT5 biochemical IC50 assay with no cofactor; details: PRMT5, no cofactor; read-out: No Cofactor/rel IC50
pIC50: −log10 of the molar value.
value type: pIC50

Problem: Given the molecule CCc1cc(NC(=O)C(=O)N2C[C@H](C)CC[C@H]2c2ccc(NC)nc2)cnc1N (single isomer, unassigned) [Compound 865] , write its reported pIC50.
Solution: > 7.30

Problem: State its pIC50: NC(=O)c1cncc(NC(=O)C(=O)N2CCC3C(CCCN3Cc3ccccc3)C2)c1 (stereo not drawn) [Compound 412]
Solution: < 6.30

Problem: Determine its reported pIC50: CCc1cc(NC(=O)C(=O)N2C[C@H](C)CC[C@H]2c2ccc3sc(N)nc3c2)cnc1N (single isomer, unassigned) [Compound 984]
Solution: < 6.30

----------
Consider the following compounds; for each one, report its IC50.
target: PRMT5 (Homo sapiens, UniProt O14744); construct: purchased Viva (custom protein); experiment: PRMT5 biochemical IC50 assay with SAM as cofactor; details: PRMT5, SAM as cofactor; read-out: SAM IC50

Problem: Supply measured IC50 of `CCc1cc(NC(=O)C(=O)N2C[C@@H](C)CC[C@@H]2c2ccc3sc(C45CC(CN(C)C4)C5)nc3c2)cnc1N` in your reply.
Solution: < 50 nM

Problem: Note IC50 for the compound shown: C[C@@H]1CC[C@@H](c2ccc3c(c2)OCO3)N(C(=O)C(=O)Nc2cncc(C(N)=O)c2)C1 (racemic)
Solution: 50 to 500 nM

Problem: Specify IC50 for C[C@@H]1CC[C@@H](C2CCC2)N(C(=O)C(=O)Nc2cncc(C(N)=O)c2)C1 (single isomer, unassigned) [Compound 216] and stop.
Solution: > 500 nM

Problem: Provide measured IC50 value, entry: Cc1cc(NC(=O)C(=O)N2C[C@H](C)C[C@H](F)[C@@H]2c2ccc(F)cc2)cnc1N (racemic)
Solution: 50 to 500 nM

Problem: Write down IC50 measured for item C[C@H]1CC[C@H](c2ccc3c(c2)CCCN3)N(C(=O)C(=O)Nc2cncc(C(N)=O)c2)C1 (single isomer, unassigned)
Solution: > 500 nM

Problem: Please look at this compound and report its IC50: Cc1cncc(NC(=O)C(=O)N2CCCCC2c2ccccc2)c1N (stereo not shown)
Solution: > 500 nM

Problem: Indicate the recorded IC50 value for this compound: NC(=O)c1cncc(NC(=O)C(=O)N2C[C@H]3CC[C@H](C3)[C@H]2c2ccccc2)c1 (single isomer, unassigned)
Solution: > 500 nM

Problem: Tell me IC50 reported for C[C@@H]1CC[C@H](c2ccc(N[C@@H]3CCN(C)C3=O)cc2)N(C(=O)C(=O)Nc2cncc(C(N)=O)c2)C1 (racemic)
Solution: 50 to 500 nM

Problem: Identify measured IC50 corresponding to Cc1cc(NC(=O)C(=O)N2C[C@H](C)CC[C@H]2c2ccc3c(c2)CCC(=O)N3)cnc1C (relative stereo)
Solution: 50 to 500 nM

Problem: Please report the measured IC50 for Cc1cc(NC(=O)C(=O)N2CCCCC2c2cccnc2)cnc1N (stereo not shown)
Solution: 50 to 500 nM

Problem: Respond only with IC50 recorded for CCc1cc(NC(=O)C(=O)N2C[C@H](C)CC[C@H]2c2ccc(NC(C)=O)cc2)cnc1N (single isomer, unassigned)
Solution: > 500 nM

Problem: Identify IC50 associated with the compound CCc1cc(NC(=O)C(=O)N2C[C@@H](C)CC[C@@H]2c2ccc3sc([C@H](C)N(C)C)nc3c2)cnc1N (single isomer, unassigned)
Solution: 50 to 500 nM

Problem: Answer with the recorded IC50 for the compound listed here: COc1ncc(NC(=O)C(=O)N2C[C@@H](C)CC[C@@H]2c2cc3[nH]ncc3s2)cc1C(N)=O (single isomer, unassigned)
Solution: 50 to 500 nM

Problem: Report IC50, nothing else, for this compound: C[C@@H]1CC[C@@H](c2ccc(-c3nccs3)cc2)N(C(=O)C(=O)Nc2cncc(C(N)=O)c2)C1 (single isomer, unassigned)
Solution: 50 to 500 nM

Problem: Please indicate IC50 recorded for CCC(C)C1CCCCN1C(=O)C(=O)Nc1cnc(N)c(C)c1 (stereo not shown)
Solution: > 500 nM

Problem: Find the measured IC50 of CCc1cc(NC(=O)C(=O)N2C[C@H](C)CC[C@H]2c2cc3cn[nH]c3s2)cnc1N (single isomer, unassigned) and report it.
Solution: > 500 nM

Problem: # return recorded IC50 for entry C[C@@H]1CC[C@@H](c2ccc(N)nc2)N(C(=O)C(=O)Nc2cncc(C(N)=O)c2)C1 (single isomer, unassigned) [Compound 492]
Solution: 50 to 500 nM

Problem: Entry `C[C@H]1CC[C@H](c2ccc3c(c2)CCN(C)C3)N(C(=O)C(=O)Nc2cnc(N)c(C3CC3)c2)C1` needs its IC50 filled in; supply it.
Solution: 50 to 500 nM

Problem: Please give the documented IC50 of COc1ncc(NC(=O)C(=O)N2C[C@@H](C)CC[C@@H]2c2cc(F)c(F)c(F)c2)cc1C(N)=O (single isomer, unassigned)
Solution: > 500 nM

Problem: Using the record for CCc1cc(NC(=O)C(=O)N2C[C@@H](C)CC[C@@H]2c2ccc3sc(NC)nc3c2)cnc1N (single isomer, unassigned) , state its measured IC50.
Solution: 50 to 500 nM

Problem: Entry C[C@@H]1CC[C@@H](c2ccc(F)cc2)N(C(=O)C(=O)Nc2cnc(N)c(C(F)F)c2)C1 (racemic) needs its IC50 filled in; supply it.
Solution: 50 to 500 nM

Problem: Note IC50 for the compound shown: Cc1cc(NC(=O)C(=O)N2C[C@H](C)CC[C@H]2c2ccnn2C)cnc1N (racemic)
Solution: 50 to 500 nM
